For each record, write down the corresponding pH 10.0 buffer: % remaining after 2 h/20° C..
- measurementParameters: buffer, pH 10
One number for each entry, in %.

>  <molecule>
CN1CC[C@]23c4c5ccc(OC(=O)N[C@@H](Cc6ccccc6)C(=O)O)c4O[C@H]2C(=O)CC[C@@]3(O)[C@H]1C5 [Oxymorphone-Phe-Carbamate]

>  <measured>
17

$$$$

Answer for every listed entry: what is its pH 10.0 buffer: % remaining after 2 h/20° C.? The entries follow.
1. CCC1(c2cccc(OC(=O)N[C@H](C(=O)O)C(C)C)c2)CCCCN(C)C1 (some centres unmarked) [Meptazinol-Val-Carbamate]
2. COC12CCC3(CC1C(C)(O)C(C)(C)C)C1Cc4ccc(OC(=O)NC(CC(=O)O)C(=O)O)c5c4C3(CCN1CC1CC1)C2O5 (centres unmarked) [Buprenorphine-Asp-Carbamate]

Solution:
1: 66; 2: 85

For every record below, what is its pH 10.0 buffer: % remaining after 2 h/20° C.?
1. COC12CCC3(CC1C(C)(O)C(C)(C)C)C1Cc4ccc(OC(=O)NC(Cc5ccccc5)C(=O)O)c5c4C3(CCN1CC1CC1)C2O5 (centres unmarked) [Buprenorphine phenylalanine carbamate]
2. CSCC[C@@H](NC(=O)Oc1ccc2c3c1OC1C(=O)CC[C@@]4(O)[C@@H](C2)N(C)CC[C@]314)C(=O)O (some centres unmarked) [Oxymorphone-Methio-Carbamate]

Solution:
74
8

* * *

- measurementParameters: dog, in vivo, po
Where a name gives a salt, the structure may show the parent alone.
I'd appreciate it if you could supply AUC (mean ngh/mL ± SD) values for the items below.
One number for each entry.

Please review the following examples before continuing.
>  <compound>
CN1CC[C@]23c4c5ccc(OC(=O)N[C@@H](Cc6ccccc6)C(=O)O)c4O[C@H]2C(=O)CC[C@@]3(O)[C@H]1C5.Cl [Oxymorphone phenylalanine carbamate HCl]

>  <AUC (mean ngh/mL ± SD)>
29.5

$$$$
>  <compound>
CC(C)[C@H](NC(=O)Oc1ccc2c3c1OC1C(=O)CC[C@@]4(O)[C@@H](C2)N(C)CC[C@]314)C(=O)O (stereo partly drawn) [Oxymorphone valine carbamate HCl]

>  <AUC (mean ngh/mL ± SD)>
94.4

$$$$

Please supply AUC (mean ngh/mL ± SD) for each of the following items, keeping them in order.
1. CSCC[C@@H](NC(=O)Oc1ccc2c3c1OC1C(=O)CC[C@@]4(O)[C@@H](C2)N(C)CC[C@]314)C(=O)O (stereo partly drawn) [Oxymorphone methionine carbamate TFA]
2. CN1CC[C@]23c4c5ccc(OC(=O)N[C@@H](Cc6ccc(O)cc6)C(=O)O)c4O[C@H]2C(=O)CC[C@@]3(O)[C@H]1C5.O=C(O)C(F)(F)F [Oxymorphone tyrosine carbamate TFA]
3. CN1CC[C@]23c4c5ccc(OC(=O)NCC(=O)O)c4O[C@H]2C(=O)CC[C@@]3(O)[C@H]1C5.O=C(O)C(F)(F)F [Oxymorphone glycine carbamate TFA]
4. CN1CC[C@]23c4c5ccc(O)c4O[C@H]2C(=O)CC[C@@]3(O)[C@H]1C5 [Oxymorphone HCl, reference compound]

Solution:
[55.4, 17.3, 67.9, 12.2]

* * *

- measurementParameters: plasma meptazinol; oral 1 mg meptazinol free base/kg; group 1 dogs (G1)
Structures can show the parent of a compound that is named as a salt.
Can you tell me AUC (mean ngh/mL ± SD) for the items I'm about to list?
Give bare numbers, in ngh/mL.

>  <compound>
CCC1(c2cccc(OC(=O)N[C@H](C(=O)O)C(C)C)c2)CCCCN(C)C1 (stereo partly shown) [Meptazinol valine carbamate TFA salt]

>  <unitDescriptor>
ngh/mL

>  <measured>
67.7

$$$$
>  <compound>
CCC1(c2cccc(OC(=O)N[C@H](C(=O)N[C@H](C(=O)O)C(C)C)C(C)C)c2)CCCCN(C)C1 (stereo partly shown) [Meptazinol val-val dipeptide TFA salt]

>  <unitDescriptor>
ngh/mL

>  <measured>
45.0

$$$$
>  <compound>
CCC1(c2cccc(OC(=O)N[C@H](C(=O)O)C(C)C)c2)CCCCN(C)C1 (stereo partly shown) [Meptazinol valine carbamate camsylate]

>  <unitDescriptor>
ngh/mL

>  <measured>
62.4

$$$$

Quick request: AUC (mean ngh/mL ± SD) for each listed item, please.
1. CCC1(c2cccc(OC(=O)N[C@H](C(=O)NCC(=O)O)C(C)C)c2)CCCCN(C)C1 (stereo partly shown) [Meptazinol val-gly dipeptide TFA salt]
2. CCC(C)[C@H](NC(=O)Oc1cccc(C2(CC)CCCCN(C)C2)c1)C(=O)O (stereo partly shown) [Meptazinol isoleucine carbamate TFA salt]
3. CCC1(c2cccc(OC(=O)NC(C)C(=O)NC(C)C(=O)O)c2)CCCCN(C)C1.O=C(O)C(F)(F)F (mixture of isomers) [Meptazinol ala-ala dipeptide TFA salt]
4. CCC1(c2cccc(OC(=O)N[C@H](C(=O)N[C@@H](C)C(=O)O)C(C)C)c2)CCCCN(C)C1 (stereo partly shown) [Meptazinol val-ala dipeptide TFA salt]

Solution:
1. 39.9
2. 34.9
3. 11.4
4. 36.5
